# tested-system: Thyrotropin receptor (Homo sapiens) (UniProt P16473)
# Sequence (P16473 whole entry, looked up): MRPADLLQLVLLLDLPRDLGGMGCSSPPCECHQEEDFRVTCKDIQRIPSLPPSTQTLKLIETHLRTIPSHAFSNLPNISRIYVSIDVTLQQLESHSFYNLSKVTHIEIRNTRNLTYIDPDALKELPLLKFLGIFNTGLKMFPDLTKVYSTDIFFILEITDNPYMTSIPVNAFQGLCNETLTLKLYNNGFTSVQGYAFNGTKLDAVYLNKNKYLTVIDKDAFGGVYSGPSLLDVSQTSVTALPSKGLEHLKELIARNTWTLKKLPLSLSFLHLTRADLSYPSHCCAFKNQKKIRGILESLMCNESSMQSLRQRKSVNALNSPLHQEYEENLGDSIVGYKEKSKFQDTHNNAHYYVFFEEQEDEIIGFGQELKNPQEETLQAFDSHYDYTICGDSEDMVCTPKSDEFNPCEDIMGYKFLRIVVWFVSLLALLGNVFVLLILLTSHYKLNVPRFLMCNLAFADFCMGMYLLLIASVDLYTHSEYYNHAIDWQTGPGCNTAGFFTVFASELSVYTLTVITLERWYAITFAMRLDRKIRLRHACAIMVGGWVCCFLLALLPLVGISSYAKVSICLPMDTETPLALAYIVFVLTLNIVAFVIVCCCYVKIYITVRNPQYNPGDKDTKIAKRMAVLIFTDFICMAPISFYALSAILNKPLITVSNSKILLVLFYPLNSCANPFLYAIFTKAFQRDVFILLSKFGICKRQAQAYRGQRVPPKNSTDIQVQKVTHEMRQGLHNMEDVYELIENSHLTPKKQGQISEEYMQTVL
# assay-method-text: qHTS assay to identify small molecule antagonists of the thyroid stimulating hormone receptor (TSHR) signaling pathway (AID 1259385); further: on the % scale 0 is the no-effect control and ±100 the full control effect; nearly all actives have a fitted effect of over 20% in size
# measurement-setup: TSHR-HEK293 cAMP HTRF, TSH-stimulated antagonist mode; series mostly up to 92.4 µM
Inconclusive results are not listed. Calls of active or inactive are those of the source. The call rests on the fitted dose curve.
value-kind: outcome

c1ccc(OCCOc2ccccc2)cc1	inactive
CC(C)c1ccc(S(=O)(=O)O)cc1	inactive
CN(C)CCOCCN(C)C	inactive
CN(C)CCC(c1ccccc1)c1ccccn1 (centres undefined)	inactive
COc1ccc(Cl)cc1C(=O)NCCc1ccc(S(=O)(=O)NC(=O)NC2CCCCC2)cc1	inactive

The reported Thyrotropin receptor (Homo sapiens) (UniProt P16473) outcome of CCCCCCCC(=O)OC is inactive

* * *

# tested-system: Aryl hydrocarbon receptor (Homo sapiens) (UniProt P35869)
# Sequence (P35869 whole entry, looked up): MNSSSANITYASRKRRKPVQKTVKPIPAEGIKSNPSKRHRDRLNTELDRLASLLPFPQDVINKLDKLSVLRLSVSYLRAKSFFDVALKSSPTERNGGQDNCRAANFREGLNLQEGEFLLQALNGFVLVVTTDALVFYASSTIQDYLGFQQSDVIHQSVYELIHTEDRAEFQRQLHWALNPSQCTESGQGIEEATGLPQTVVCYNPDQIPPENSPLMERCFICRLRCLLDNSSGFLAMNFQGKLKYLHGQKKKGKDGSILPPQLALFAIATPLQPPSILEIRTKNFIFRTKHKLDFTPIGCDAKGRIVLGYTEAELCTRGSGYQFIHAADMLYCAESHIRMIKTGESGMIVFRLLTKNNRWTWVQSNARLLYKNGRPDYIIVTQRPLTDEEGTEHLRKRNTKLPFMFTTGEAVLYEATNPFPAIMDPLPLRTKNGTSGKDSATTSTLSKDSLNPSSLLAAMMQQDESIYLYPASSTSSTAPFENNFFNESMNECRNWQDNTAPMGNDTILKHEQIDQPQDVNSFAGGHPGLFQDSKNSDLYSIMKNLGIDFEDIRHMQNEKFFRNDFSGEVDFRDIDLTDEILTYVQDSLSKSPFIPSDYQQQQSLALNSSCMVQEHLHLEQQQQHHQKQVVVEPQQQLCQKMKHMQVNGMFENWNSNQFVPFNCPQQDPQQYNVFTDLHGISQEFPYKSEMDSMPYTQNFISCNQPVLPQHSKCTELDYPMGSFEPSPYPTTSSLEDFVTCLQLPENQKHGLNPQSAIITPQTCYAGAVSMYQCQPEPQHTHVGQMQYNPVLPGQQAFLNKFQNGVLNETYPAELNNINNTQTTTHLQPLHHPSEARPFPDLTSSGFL
# assay-method-text: qHTS assay to identify small molecule that activate the aryl hydrocarbon receptor (AhR) signaling pathway (AID 743085); further: nearly all actives have a fitted effect of over 15% in size;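 on activation: HG2L7.5c1 human HepG2 liver cells with stably integrated DRE-driven firefly reporter; on the % scale 0 is the no-effect control and ±100 the full control effect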
# measurement-setup: HepG2 AhR-luc (HG2L7.5c1), luciferase, 24 h; series mostly up to 70.3 µM
Inconclusive results are not listed. The source made the active and inactive calls. The call rests on the fitted dose curve; in most records, active means well fitted activation curve with a large enough effect in the repeat runs; inconclusive means weak or mixed curves; inactive means no such curve, though single readings can be large or run the other way.
The categories you may choose from are true (1) for active, false (0) for inactive

CCCC(C)=O	false (0)

Req: Write down the call the test reported for this compound. Item: COc1ccc(Nc2ccccc2)c(C)c1
Resp: false (0)

Req: Per the assay record, what outcome was assigned to CSCCC=O ?
Resp: false (0)

Req: What did the test return for N[C@@H](Cc1cc(I)c(Oc2cc(I)c(O)c(I)c2)c(I)c1)C(=O)O ?
Resp: true (1)

Req: Which outcome was entered for the compound C/C=C1/CC2C=CC1C2 (stereo not given) in this test?
Resp: false (0)

Req: Tell me the assay call for O=P(OC(CCl)CCl)(OC(CCl)CCl)OC(CCl)CCl please.
Resp: false (0)

Req: How did this test come out for CC1=CC(=O)NS(=O)(=O)O1 ?
Resp: false (0)

Req: Hi, sorry to bother you, what did the test record for CCCCN(CCCC)CCCC ?
Resp: false (0)

Req: Hey, what did the test say about COc1cc(Cc2cnc(N)nc2N)cc(OC)c1OC ?
Resp: false (0)

Req: Look up the recorded call for CCCCCCCC(=O)OC in this test.
Resp: false (0)

Req: Called result for CC1=C(C)S(=O)(=O)CCS1(=O)=O
Resp: false (0)

Req: Could you kindly confirm the outcome this assay logged for CCN(CC)c1ccc(C(=O)c2ccccc2C(=O)O)c(O)c1 ?
Resp: false (0)

Req: What classification did COS(C)(=O)=O end up with in this test?
Resp: false (0)

Req: Returns: the outcome recorded for CC(=O)Nc1cccc(O)c1 in this assay.
Resp: false (0)

Req: What was the test verdict on Cc1occc(=O)c1O ?
Resp: false (0)

* * *

# assay-method-text: qHTS assay to identify small molecule agonists of the estrogen receptor beta (ER-beta) signaling pathway - cell viability counter screen (AID 1259380); further: nearly all actives have a fitted effect of over 30% in size
# measurement-setup: ER-beta-bla HEK293T viability, CellTiter-Glo luminescence, 16 h; series mostly up to 92.4 µM
Results filed as inconclusive are left out. Calls of active or inactive are those of the source. The call rests on the fitted dose curve; in most records, active means well fitted cell-killing curve with a large enough effect in the repeat runs; inconclusive means weak or mixed curves, or effect the other way; inactive means flat fitted curve, though single readings scatter.
Your answer must be one of the following: YES for active, NO for inactive

Sample answers from the record:
OCCOCCN1CCN(C2=Nc3ccccc3Sc3ccccc32)CC1	YES
CC(C)(N)CO	NO
COc1ccc(Nc2ccccc2)c(C)c1	NO

Req: In this assay, the call recorded for OCc1cccnc1 was what?
Resp: NO

Req: Hi, do you know how O=C(O)c1cc(O)c(O)c(O)c1 came out in this test?
Resp: NO

Req: Per the assay record, what outcome was assigned to c1ccc2scnc2c1 ?
Resp: NO

Req: Dear colleague, could you share the recorded outcome for O=C(CC(C(=O)OC1CCCCC1)S(=O)(=O)O)OC1CCCCC1 (stereo not drawn) when you have a moment?
Resp: NO

Req: Fill in: this test's call for C#CCN(C)Cc1ccccc1 is ___
Resp: NO

* * *

# tested-system: Vitamin D3 receptor (Homo sapiens) (UniProt P11473)
# Sequence (P11473 whole entry, looked up): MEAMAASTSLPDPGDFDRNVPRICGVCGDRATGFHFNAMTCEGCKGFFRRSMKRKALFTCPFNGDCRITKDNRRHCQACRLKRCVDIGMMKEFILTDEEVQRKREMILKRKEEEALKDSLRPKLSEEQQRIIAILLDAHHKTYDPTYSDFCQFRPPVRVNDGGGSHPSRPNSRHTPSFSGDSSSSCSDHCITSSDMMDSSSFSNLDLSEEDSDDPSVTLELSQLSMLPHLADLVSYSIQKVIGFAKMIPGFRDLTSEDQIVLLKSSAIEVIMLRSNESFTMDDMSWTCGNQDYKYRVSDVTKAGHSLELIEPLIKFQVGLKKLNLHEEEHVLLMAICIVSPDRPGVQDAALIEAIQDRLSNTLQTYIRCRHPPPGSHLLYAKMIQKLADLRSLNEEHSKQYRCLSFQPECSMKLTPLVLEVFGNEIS
# assay-method-text: qHTS assay to identify small molecule antagonists of the vitamin D receptor (VDR) signaling pathway (AID 743223); further: on the % scale 0 is the no-effect control and ±100 the full control effect
# measurement-setup: VDR-UAS-bla HEK293T, beta-lactamase FRET ratio, 16 h; series mostly up to 61 µM
Inconclusive results are not listed. Activity calls are given as the source filed them. Calls come from the whole dose curve; as a rule, active = well fitted inhibition curve with a large enough effect in the signal ratio in the repeat runs (not every such curve was filed as active); inconclusive = weak or mixed curves, or effect the other way; inactive = no such curve, though single readings can be large or run the other way; the % refers to the signal ratio.
value-kind: activity change, negative = inhibition

Examples with answers:
CCCCCCCCCC	inactive
O=C(O)c1cc(C(=O)O)cc(S(=O)(=O)O)c1	inactive
CC(=O)OCC(=O)[C@@]12N=C(C)O[C@@H]1C[C@H]1[C@@H]3CCC4=CC(=O)C=C[C@]4(C)[C@H]3[C@@H](O)C[C@@]12C	inactive
CCCCCCCC(=O)OC	inactive

Data point: CC(C)(N)CO ; activity change, negative = inhibition = inactive

Noted for CCC(O)OCCCOC (configuration not stated) : its activity change, negative = inhibition reads inactive

Measured activity change, negative = inhibition of CC(C)(C)[C@@H](O)[C@@H](Cc1ccc(Cl)cc1)n1cncn1 : inactive

* * *

# assay-method-text: qHTS assay to test for compound auto fluorescence at 590 nm (red) in HepG2 cells (AID 720674); further: on the % scale 0 is the no-effect control and ±100 the full control effect
# measurement-setup: HepG2 autofluorescence, red 540/590 nm, 1 h; series mostly up to 91.3 µM
# Source text: U.S. Tox21 Program National Center for Advancing Translational Sciences [NCATS] NIH Chemical Genomics Center [NCGC] U.S. Environmental Protection Agency [EPA] National Institutes of Environmental Health Sciences [NIEHS] National Toxicology Program [NTP] U.S. Food and Drug Administration [FDA] Tox21 Assay Overview: Compound auto fluorescence often interferes with screening of the compound library against various biological targets and signaling pathways. […] This assay includes the red fluorescence data. […]
Activity calls are given as the source filed them. The call rests on the fitted dose curve; in most records, active means well fitted curve in the direction sought with a large enough effect in the repeat runs; inconclusive means weak or mixed curves; inactive means flat fitted curve, though single readings scatter.
value-kind: outcome

OC[C@H]1O[C@@](CO)(O[C@H]2O[C@H](CO)[C@@H](O)[C@H](O)[C@H]2O)[C@@H](O)[C@@H]1O	inactive
CC1=CCC2CC1C2(C)C (configuration not stated)	inactive
CC(=O)Nc1cccc(O)c1	inactive
CCCCCCCCCCCCOCCO	inactive
Cc1cnc(C(=O)NCCc2ccc(S(=O)(=O)NC(=O)NC3CCCCC3)cc2)cn1	inactive
Nc1cc([N+](=O)[O-])ccc1O	inactive

Form field outcome, entry C=C(C)C(=O)Nc1ccc(Cl)c(Cl)c1 : inactive

Looking up C[C@H]1C[C@@H]2[C@H]([C@@H](O)C[C@@]3(C)[C@H]2CC[C@]3(O)C(=O)CO)[C@@]2(C)C=CC(=O)C=C12 , I see its outcome listed as inactive

Query O=C(Oc1ccccc1)c1ccccc1 yields outcome of inactive

Record summary for CCCCC(CC)COC(=O)CCCCC(=O)OCC(CC)CCCC (configuration not stated) : reported outcome = inactive

Reported outcome ( C/C=C1/CC2C=CC1C2 (configuration not stated) ) = inactive

According to the records, this compound O=C(O)c1ccc(C(=O)O)cc1 displays outcome of inactive

* * *

# tested-system: Estrogen receptor (Homo sapiens) (UniProt P03372)
# Sequence (P03372 whole entry, looked up): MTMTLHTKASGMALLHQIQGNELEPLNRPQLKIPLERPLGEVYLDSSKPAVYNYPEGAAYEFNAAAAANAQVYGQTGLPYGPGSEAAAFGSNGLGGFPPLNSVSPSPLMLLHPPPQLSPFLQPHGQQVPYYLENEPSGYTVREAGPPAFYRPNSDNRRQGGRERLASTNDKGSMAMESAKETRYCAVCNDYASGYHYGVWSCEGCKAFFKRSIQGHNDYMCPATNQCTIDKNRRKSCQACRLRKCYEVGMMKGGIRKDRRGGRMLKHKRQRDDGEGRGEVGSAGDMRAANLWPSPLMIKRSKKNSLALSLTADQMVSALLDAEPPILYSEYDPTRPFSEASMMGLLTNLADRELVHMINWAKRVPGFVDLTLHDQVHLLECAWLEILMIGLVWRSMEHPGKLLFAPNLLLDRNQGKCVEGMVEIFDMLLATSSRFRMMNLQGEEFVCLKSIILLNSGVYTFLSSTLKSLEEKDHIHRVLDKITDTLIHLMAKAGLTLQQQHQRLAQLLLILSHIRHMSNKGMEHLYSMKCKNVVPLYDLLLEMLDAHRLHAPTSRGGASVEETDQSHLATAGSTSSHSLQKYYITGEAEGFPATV
# assay-method-text: qHTS assay to identify small molecule agonists of the estrogen receptor alpha (ER-alpha) signaling pathway in the presence of an antagonist (AID 1259383); further: top concentration of the series differs between compounds; on the % scale 0 is the no-effect control and ±100 the full control effect; nearly all actives have a fitted effect of over 15% in size
# measurement-setup: VM7Luc4E2 cells, ERE-luciferase, +ICI-182,780, 22 h; series mostly up to 92.4 µM
Activity calls are given as the source filed them. The call rests on the fitted dose curve.
value-kind: outcome

O=C=NCCCCCCN=C=O	inactive
Cc1cccc(O)c1	inactive
CCCCCCCCCC	inactive

* * *

# assay-method-text: qHTS assay to identify small molecule antagonists of the glucocorticoid receptor (GR) signaling pathway - cell viability counter screen (AID 720693); further: on the % scale 0 is the no-effect control and ±100 the full control effect; nearly all actives have a fitted effect of over 55% in size
# measurement-setup: GR-bla HeLa viability, CellTiter-Glo luminescence, 18 h, with 5 nM dexamethasone present; series mostly up to 58.5 µM
Inconclusive results are not listed. Active and inactive are the calls of the source. The call rests on the fitted dose curve; in most records, active means well fitted cell-killing curve with a large enough effect in the repeat runs; inconclusive means weak or mixed curves, or effect the other way; inactive means no such curve, though single readings can be large or run the other way.
value-kind: outcome

O=C1CCC(N2C(=O)c3ccccc3C2=O)C(=O)N1 (stereo not drawn)	inactive
CC1CCC2CC1C2(C)C (stereo not drawn)	inactive
C#CCN(C)Cc1ccccc1	inactive

* * *

# assay-method-text: A CellTox Green Cytotoxicity Assay to monitor cytotoxicity in HEK293 cells - 32 hour (AID 1224881); further: on the % scale 0 is the no-effect control and ±100 the full control effect; nearly all actives have a fitted effect of over 40% in size
# measurement-setup: CellTox Green fluorescence; series mostly up to 76.8 µM
Inconclusive results are not listed. Active and inactive are the calls of the source. The call rests on the fitted dose curve; in most records, active means well fitted activation curve with a large enough effect in the repeat runs; inconclusive means weak or mixed curves; inactive means flat fitted curve, though single readings scatter.
value-kind: outcome

CSCCC=O	inactive
CN(C)CCC(c1ccc(Cl)cc1)c1ccccn1 (configuration not stated)	inactive
CCCCCCCCCCCCCCO	inactive
CC[C@H](C)C(=O)O[C@H]1C[C@@H](C)C=C2C=C[C@H](C)[C@H](CC[C@@H]3C[C@@H](O)CC(=O)O3)[C@H]21	inactive
O=P(OC(CCl)CCl)(OC(CCl)CCl)OC(CCl)CCl	inactive
CC1CCC(C(C)C)C(O)C1 (configuration not stated)	inactive

Briefly, outcome measured for CC1CCC2CC1C2(C)C (configuration not stated) : inactive

// outcome lookup, compound = CCCCCCCCCC , result: inactive

Documented outcome of C[C@H]1C[C@@H]2[C@H]([C@@H](O)C[C@@]3(C)[C@H]2CC[C@]3(O)C(=O)CO)[C@@]2(C)C=CC(=O)C=C12 : inactive

For C[Si](O[Si](C)(C)C)O[Si](C)(C)C the compound record lists outcome as inactive

Sample COc1ccc(Cl)cc1C(=O)NCCc1ccc(S(=O)(=O)NC(=O)NC2CCCCC2)cc1 ; outcome observed: inactive

What the record says about NNc1nncc2ccccc12 : outcome is inactive
